- TESTED SYSTEM: Atrial natriuretic peptide receptor 2 (Homo sapiens) (UniProt P20594)
- Sequence (P20594 whole entry, looked up): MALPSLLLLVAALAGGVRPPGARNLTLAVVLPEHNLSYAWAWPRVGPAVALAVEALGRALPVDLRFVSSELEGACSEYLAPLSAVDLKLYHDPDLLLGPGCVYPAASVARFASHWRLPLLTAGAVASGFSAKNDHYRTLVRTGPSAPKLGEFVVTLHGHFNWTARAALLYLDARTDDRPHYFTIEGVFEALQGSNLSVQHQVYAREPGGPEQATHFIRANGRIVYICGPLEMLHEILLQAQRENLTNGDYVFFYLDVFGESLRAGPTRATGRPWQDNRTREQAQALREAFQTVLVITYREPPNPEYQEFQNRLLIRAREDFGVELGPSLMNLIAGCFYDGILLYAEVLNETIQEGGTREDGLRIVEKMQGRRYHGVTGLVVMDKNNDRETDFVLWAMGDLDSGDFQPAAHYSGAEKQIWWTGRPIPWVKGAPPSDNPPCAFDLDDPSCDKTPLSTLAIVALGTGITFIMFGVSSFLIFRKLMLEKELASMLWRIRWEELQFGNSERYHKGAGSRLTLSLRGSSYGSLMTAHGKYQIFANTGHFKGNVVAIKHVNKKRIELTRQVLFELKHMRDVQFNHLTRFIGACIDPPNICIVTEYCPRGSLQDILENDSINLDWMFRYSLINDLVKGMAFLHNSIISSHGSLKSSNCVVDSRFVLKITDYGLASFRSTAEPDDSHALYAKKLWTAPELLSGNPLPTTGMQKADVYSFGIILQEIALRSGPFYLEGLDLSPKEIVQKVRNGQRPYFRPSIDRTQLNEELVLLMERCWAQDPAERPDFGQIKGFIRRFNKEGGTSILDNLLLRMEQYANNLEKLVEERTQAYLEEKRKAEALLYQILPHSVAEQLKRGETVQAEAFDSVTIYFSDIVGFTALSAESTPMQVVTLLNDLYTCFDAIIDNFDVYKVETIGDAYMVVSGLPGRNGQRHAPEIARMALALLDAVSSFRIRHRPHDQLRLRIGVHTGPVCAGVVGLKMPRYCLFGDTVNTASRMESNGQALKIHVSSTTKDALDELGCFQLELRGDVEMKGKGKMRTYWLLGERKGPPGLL
- ASSAY DETAILS: Natriuretic polypeptide receptor (hNpr2) antagonism - Pilot subtype selectivity assay (AID 1347050)
- CONDITIONS: NPR2-expressing cells, cGMP antagonist-mode read-out; series mostly up to 38.3 µM
- Text: F. Fan, B. F. Binkowski, B. L. Butler, P. F. Stecha, M. K. Lewis, K. V. Wood, Novel genetically encoded biosensors using firefly luciferase. ACS Chem Biol 3, 346-351 (2008). PROTOCOL TABLE (as described by Inglese J, Shamu CE and Guy RK. 2007) […] 7. […] GloSensor baseline pre-read luminescence measured using CCD-based camera (Viewlux). […] 10. […] GloSensor post-hNppC luminescence measured using CCD-based camera (Viewlux). […] 1. […] Cells counted with Invitrogen Countess (30,000,000 - 50,000,000 cells/flask). […]
Results filed as inconclusive are left out. The source made the active and inactive calls. The call rests on the fitted dose curve.
METRIC: outcome

C[N+]1(CCCCC[N+]2(C)CCCC2)CCCC1
inactive
CC(=O)O[C@H]1C[C@@H]2CC[C@@H]3[C@H](CC[C@@]4(C)[C@H]3C[C@H]([N+]3(C)CCCCC3)[C@@H]4OC(C)=O)[C@@]2(C)C[C@@H]1[N+]1(C)CCCCC1
inactive
C[C@@H]1C(=O)NC2=Nc3cccc(Cl)c3CN21
inactive
CN1C2CCC1CC(OC(=O)c1c[nH]c3ccccc13)C2 (stereo unspecified)
inactive
CCCC1O[C@@H]2C[C@H]3[C@@H]4CCC5=CC(=O)C=C[C@]5(C)[C@H]4[C@@H](O)C[C@]3(C)[C@]2(C(=O)CO)O1 (stereo partly specified)
inactive

QUERY: Give the measured outcome of "Nc1cc(Cl)c(NC2=NCCN2)c(Cl)c1" .
RESULT: inactive

QUERY: Give the measured outcome of CNCCC(Oc1ccccc1C)c1ccccc1 (stereo unspecified) .
RESULT: inactive

QUERY: Give the measured outcome of "N[C@@H](Cc1cnc[nH]1)C(=O)O" .
RESULT: inactive

QUERY: Give the measured outcome of "C1CCc2nnnn2CC1" .
RESULT: inactive

QUERY: Give the measured outcome of "COc1cc(NS(C)(=O)=O)ccc1Nc1c2ccccc2nc2ccccc12" .
RESULT: inactive

QUERY: Give the measured outcome of "CCCn1c(=O)[nH]c(=O)c2[nH]cnc21" .
RESULT: inactive

QUERY: Give the measured outcome of "Oc1ccc(O)cc1" .
RESULT: inactive

QUERY: Give the measured outcome of "CC(C)COC(=O)OCN1C(=O)CN(CCN2CC(=O)N(COC(=O)OCC(C)C)C(=O)C2)CC1=O" .
RESULT: inactive

QUERY: Give the measured outcome of "CC1(C)CCC(NC(=O)[C@@H](N)CCC(=O)O)CC1" .
RESULT: inactive

QUERY: Give the measured outcome of "COC(=O)[C@H]1[C@H]2C[C@H]3c4[nH]c5ccccc5c4CCN3C[C@H]2CC[C@@H]1O" .
RESULT: inactive

QUERY: Give the measured outcome of CCC(NC(C)C)C(O)c1ccc(O)c(O)c1 (stereo unspecified) .
RESULT: inactive

* * *

- Test system: TAB165
- ASSAY DETAILS: qHTS profiling for inhibitors of Plasmodium falciparum proliferation (AID 504749); further: nearly all actives have a fitted effect of over 60% in size; further: potency means the concentration at half of the fitted maximal effect
- CONDITIONS: P. falciparum in erythrocytes, SYBR Green DNA, 72 h; series mostly up to 28.7 µM
- Experimental: NIH National Institute of Allergy and Infectious Diseases [NIAID] NIH Chemical Genomics Center [NCGC] […] Because mature erythrocytes lack DNA, only Plasmodium-derived DNA is detected. NCGC Assay Protocol Summary: The SYBR Green viability assay was adapted from a method described previously (Plouffe et al., 2008). […] The following morning, fluorescence intensity at 485(14) nm excitation and 535(25) nm emission wavelengths was measured on an EnVision (Perkin Elmer) plate reader. […]
Results filed as inconclusive are left out. Calls of active or inactive are those of the source. Calls follow the shape of the dose curve; as a rule, active = well fitted inhibition curve with a large enough effect; inconclusive = small, poorly fitted or top-dose-only effect; inactive = flat fitted curve, though single readings scatter.
METRIC: Potency

A selection of reference data follows.
COc1c2occc2c(OC)c2c(=O)cc(C)oc12
inactive
CC1=C(C(=O)OC(C)C)C(c2cccc([N+](=O)[O-])c2)C(C(=O)OC2CN(C(c3ccccc3)c3ccccc3)C2)=C(N)N1 (stereo unspecified)
5.01 µM (active)
CC(=O)Nc1c(I)cc(I)c(C(=O)O)c1I
inactive
CCCCc1nc(Cl)c(CO)n1Cc1ccc(-c2ccccc2-c2nn[nH]n2)cc1
8.91 µM (active)
CN1C(CCl)Nc2cc(Cl)c(S(N)(=O)=O)cc2S1(=O)=O (stereo unspecified)
inactive

QUERY: Give the measured Potency of "NC(=NCCCCCCN=C(N)/N=C(\N)Nc1ccc(Cl)cc1)/N=C(\N)Nc1ccc(Cl)cc1" .
RESULT: 0.794 µM (active)

QUERY: Give the measured Potency of "CC(=O)N/N=C/c1ccc([N+](=O)[O-])o1" .
RESULT: 12.6 µM (active)

QUERY: Give the measured Potency of "Nc1cc(Cl)c(NC2=NCCN2)c(Cl)c1" .
RESULT: inactive

QUERY: Give the measured Potency of "O=C(O)CNC(=O)c1ccccc1" .
RESULT: inactive

QUERY: Give the measured Potency of "CN1CCC[C@@H]1c1cccnc1" .
RESULT: inactive

QUERY: Give the measured Potency of "Cc1cccn2c(=O)c(-c3nnn[nH]3)cnc12" .
RESULT: inactive

QUERY: Give the measured Potency of "N[C@H](CO)C(=O)O" .
RESULT: inactive

QUERY: Give the measured Potency of "COc1cccc2c1C(=O)c1c(O)c3c(c(O)c1C2=O)C[C@@](O)(C(C)=O)C[C@@H]3O[C@H]1C[C@H](N)[C@H](O)[C@H](C)O1" .
RESULT: 2.24 µM (active)

QUERY: Give the measured Potency of "Nc1ccc(/C=C/c2ccc(N)cc2S(=O)(=O)O)c(S(=O)(=O)O)c1" .
RESULT: inactive

QUERY: Give the measured Potency of "Nc1ccc(C(=O)O)cc1" .
RESULT: inactive

QUERY: Give the measured Potency of "CCOC(=O)n1ccn(C)c1=S" .
RESULT: inactive
